The measurements presented in this section are drawn from ChEMBL document CHEMBL3745691.

- MEASUREMENT DESCRIPTION: Binding affinity to HIV1 capsid protein p24 by SPR assay
- Parameters: species or system Human immunodeficiency virus 1
RECORDED METRIC: pKd
Give bare numbers, as −log10 of the molar value.

Cc1[nH]c2ccccc2c1CC(=O)N[C@@H](Cc1ccccc1)C(=O)N(C)c1ccccc1    5.60

// moving on: another record for pKd
# input compound: `O=C(Cc1c[nH]c2ccccc12)NCC1(c2ccccc2)CC1` ; wanted: its pKd
4.42

---

- MEASUREMENT DESCRIPTION: Cytotoxicity against human U87 cells expressing CD4.CCR5
- Assay type: cell-based, U-87MG ATCC
RECORDED METRIC: CC50

# input molecule: `O=C(Cc1c[nH]c2ccccc12)NCC1(c2ccccc2)CC1` ; wanted: its CC50
526 µM
